For each of the compounds below, state its pEC50.
Tested Target: α2β1 integrin (Homo sapiens, UniProt P05556+P17301)
Sequence (P17301 30-1181): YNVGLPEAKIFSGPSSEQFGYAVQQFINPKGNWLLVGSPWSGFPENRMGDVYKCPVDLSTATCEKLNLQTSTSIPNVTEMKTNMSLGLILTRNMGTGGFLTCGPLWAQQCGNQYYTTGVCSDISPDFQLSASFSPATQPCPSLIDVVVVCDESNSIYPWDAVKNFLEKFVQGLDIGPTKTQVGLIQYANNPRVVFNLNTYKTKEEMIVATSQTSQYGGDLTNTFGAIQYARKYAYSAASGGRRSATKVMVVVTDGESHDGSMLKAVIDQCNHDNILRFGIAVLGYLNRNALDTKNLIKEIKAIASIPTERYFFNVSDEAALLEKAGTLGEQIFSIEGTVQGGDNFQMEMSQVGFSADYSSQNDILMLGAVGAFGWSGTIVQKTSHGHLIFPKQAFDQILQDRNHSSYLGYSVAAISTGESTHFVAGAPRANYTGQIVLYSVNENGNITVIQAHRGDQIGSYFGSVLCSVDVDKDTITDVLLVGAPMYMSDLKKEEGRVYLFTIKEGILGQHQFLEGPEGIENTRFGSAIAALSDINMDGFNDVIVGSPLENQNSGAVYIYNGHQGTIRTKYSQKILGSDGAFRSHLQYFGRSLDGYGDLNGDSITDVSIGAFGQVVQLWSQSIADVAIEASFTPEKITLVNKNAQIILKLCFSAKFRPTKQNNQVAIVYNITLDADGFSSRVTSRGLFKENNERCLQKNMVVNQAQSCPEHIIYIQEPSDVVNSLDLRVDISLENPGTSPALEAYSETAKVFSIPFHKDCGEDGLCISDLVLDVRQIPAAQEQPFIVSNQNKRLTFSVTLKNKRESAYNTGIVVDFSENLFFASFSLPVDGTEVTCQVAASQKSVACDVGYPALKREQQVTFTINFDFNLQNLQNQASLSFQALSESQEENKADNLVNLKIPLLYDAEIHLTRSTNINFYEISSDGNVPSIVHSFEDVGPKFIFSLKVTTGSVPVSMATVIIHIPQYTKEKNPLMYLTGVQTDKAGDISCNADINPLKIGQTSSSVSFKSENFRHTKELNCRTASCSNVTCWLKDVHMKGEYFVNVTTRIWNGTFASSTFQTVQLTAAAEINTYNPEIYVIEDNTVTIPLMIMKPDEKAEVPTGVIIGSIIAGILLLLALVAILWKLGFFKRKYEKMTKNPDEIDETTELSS
Sequence (P05556 21-798 partner): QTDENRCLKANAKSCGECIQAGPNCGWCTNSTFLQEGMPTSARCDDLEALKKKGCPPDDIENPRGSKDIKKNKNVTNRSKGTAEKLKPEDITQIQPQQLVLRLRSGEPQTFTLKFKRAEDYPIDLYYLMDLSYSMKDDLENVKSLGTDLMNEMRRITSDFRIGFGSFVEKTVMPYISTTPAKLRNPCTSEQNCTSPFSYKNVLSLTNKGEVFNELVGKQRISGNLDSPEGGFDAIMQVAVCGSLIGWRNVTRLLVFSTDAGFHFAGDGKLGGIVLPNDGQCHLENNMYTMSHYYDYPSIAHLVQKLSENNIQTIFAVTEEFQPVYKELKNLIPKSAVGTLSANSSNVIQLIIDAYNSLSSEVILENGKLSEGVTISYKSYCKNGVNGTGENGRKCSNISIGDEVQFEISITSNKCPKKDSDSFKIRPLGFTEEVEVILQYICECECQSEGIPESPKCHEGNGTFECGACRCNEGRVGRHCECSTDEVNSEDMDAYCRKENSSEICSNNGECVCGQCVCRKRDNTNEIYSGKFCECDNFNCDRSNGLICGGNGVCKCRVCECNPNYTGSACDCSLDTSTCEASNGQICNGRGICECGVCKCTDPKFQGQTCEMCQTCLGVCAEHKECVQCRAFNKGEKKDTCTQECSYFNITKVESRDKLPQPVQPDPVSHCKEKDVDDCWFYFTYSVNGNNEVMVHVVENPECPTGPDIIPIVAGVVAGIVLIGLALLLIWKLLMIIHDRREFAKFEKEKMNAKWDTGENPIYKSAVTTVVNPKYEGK
Assay Details: Cell adhesion assay
Format: cell-based
Condition Notes: read-out: EC50 in cell adhesion assay
The read-out pEC50 is expressed as -log10 of concentration in moles per litre.

*Q* Request the reported pEC50 associated with Cc1cc2c(n1-c1ccc(NS(=O)(=O)c3ccc(-c4cnco4)s3)cc1)CC(C)(C)CC2=O [Compound 258]
*A* 4.40

*Q* Quick check: pEC50 of COc1cc(OC)nc(-c2ccc(NS(=O)(=O)c3ccc(-c4cnco4)s3)cc2)n1 [Compound 286] ?
*A* 4.43

*Q* Reported pEC50 for O=S(=O)(Nc1ccc2[nH]ccc2c1)c1ccc(Cl)cc1Cl [Compound 134] : what is it?
*A* 5.00

*Q* pEC50 lookup needed for Cc1cc2cc(N(C)S(=O)(=O)c3cccc(Br)c3)ccc2[nH]1 [Compound 209] , thanks.
*A* 4.46

*Q* Would you mind telling me what pEC50 value was observed for CN(C)c1ccc(NS(=O)(=O)c2cc(-c3ccc(F)cc3)c(F)cc2F)cc1 [Compound 202] ?
*A* 4.57

*Q* Recorded pEC50 of CN(C)c1ccc(NS(=O)(=O)c2ccc(-c3ccc(F)cc3)s2)cc1 [Compound 306] , please.
*A* 4.62

*Q* Would you kindly share the measured pEC50 for CN(C)c1ccc(NS(=O)(=O)c2cccc(-c3ccc(F)cc3)c2)cc1 [Compound 119] ?
*A* 5.52

*Q* Give its pEC50 value. Item: CC(C)(C)c1cc2cc(NS(=O)(=O)c3ccc(Cl)cc3)ccc2[nH]1 [Compound 173]
*A* 4.46

---

Tested Target: α2β1 integrin (Homo sapiens, UniProt P05556+P17301)
Assay Details: Cell adhesion assay
Assay type: cell-based
Condition Notes: read-out: EC50 in cell adhesion assay
For each of the compounds below, state its pEC50.
Just so you know, pEC50 here is -log10 of the concentration in molar units; reply with that number alone.

*Q* What measured pEC50 is associated with Cc1cc2cc(NS(=O)(=O)c3ccc(Cl)cc3Cl)ccc2[nH]1 [Compound 131] on α2β1 integrin (Homo sapiens, UniProt P05556+P17301)?
*A* 4.60

*Q* // lookup pEC50 | system=α2β1 integrin (Homo sapiens, UniProt P05556+P17301) | key= CC(C)(C)c1cc2cc(NS(=O)(=O)c3cccc(-c4ccc(F)cc4)c3)ccc2[nH]1 [Compound 291]
*A* 4.49

*Q* Reported pEC50 for α2β1 integrin (Homo sapiens, UniProt P05556+P17301), given CN(C)c1ccc(N(C)S(=O)(=O)c2cccc(Br)c2)cc1 [Compound 281] ?
*A* 4.33

*Q* Identify the measured pEC50 of Cc1cc(C)nc(Nc2ccc(NS(=O)(=O)c3ccc(Cl)cc3Cl)cc2)n1 [Compound 182] for α2β1 integrin (Homo sapiens, UniProt P05556+P17301).
*A* 4.60

*Q* Any idea what pEC50 came out for COc1cc(OC)nc(-c2ccc(NS(=O)(=O)c3ccc(Cl)c(Cl)c3)cc2)n1 [Compound 255] on α2β1 integrin (Homo sapiens, UniProt P05556+P17301)?
*A* 4.77

*Q* # query: pEC50 | item COc1ccc(-c2cnn(-c3ccc(NS(=O)(=O)c4ccc(Cl)cc4)cc3)c2)cc1 [Compound 176] | system: α2β1 integrin (Homo sapiens, UniProt P05556+P17301)
*A* 4.77

*Q* Form: Entry = Cc1cc(F)ccc1-c1cccc(S(=O)(=O)Nc2ccc(N(C)C)cc2)c1 [Compound 222] | System = α2β1 integrin (Homo sapiens, UniProt P05556+P17301) | pEC50 = ____
*A* 4.82

*Q* What is its pEC50 for α2β1 integrin (Homo sapiens, UniProt P05556+P17301)? Entry: COc1ccc(-c2cccc(S(=O)(=O)Nc3ccc(N(C)C)cc3)c2)cc1OC [Compound 142]
*A* 4.70

---

Tested Target: α2β1 integrin (Homo sapiens, UniProt P05556+P17301)
Assay Details: Cell adhesion assay
Assay type: cell-based
Condition Notes: read-out: EC50 in cell adhesion assay
Recorded Endpoint: pEC50
Keep in mind that pEC50 stands for -log10 of concentration in molar terms.

*Q* Field request: pEC50 | item: CN(C)c1ccc(NS(=O)(=O)c2cccc(-c3cccc(C#N)c3)c2)cc1 [Compound 275]
*A* 4.59

*Q* pEC50 lookup needed for O=S(=O)(Nc1ccc2ncsc2c1)c1cccc(Br)c1 [Compound 139] , thanks.
*A* 4.34

*Q* Look up pEC50 for this compound: Cc1nc2cc(N(C)S(=O)(=O)c3cccc(-c4ccc(F)cc4)c3)ccc2o1 [Compound 295]
*A* 4.54

*Q* I have this compound here, Cc1cc(C)nc(N(C)c2ccc(N(C)S(=O)(=O)c3ccc(Cl)cc3Cl)cc2)n1 [Compound 302] , and I need its recorded pEC50.
*A* 4.62

---

Please provide measured Emax for the entries that follow.
Tested Target: α2β1 integrin (Homo sapiens, UniProt P05556+P17301)
Assay Details: Cell adhesion assay
Format: cell-based
Condition Notes: concentration not given; read-out: Emax in cell adhesion assay
Write the number in % without appending the unit.

*Q* Sample CN(C)c1ccc(NS(=O)(=O)c2cccc(-c3ccc(F)cc3)c2)cc1 [Compound 119] — what was its Emax?
*A* 70

*Q* // returns reported Emax for input CN(C)c1ccc(N(C)S(=O)(=O)c2cccc(Br)c2)cc1 [Compound 281]
*A* 78

*Q* Query (molecule): Cc1nc2cc(NS(=O)(=O)c3cccc(-c4ccc(F)cc4)c3)ccc2o1 [Compound 190] ; field requested: Emax
*A* 76

*Q* # query: Emax of entry Cc1nc2ccc(NS(=O)(=O)c3cccc(Br)c3)cc2s1 [Compound 195]
*A* 60

*Q* Entry Cc1cc2cc(NS(=O)(=O)c3cccc(Br)c3)ccc2[nH]1 [Compound 197] has what Emax?
*A* 74

*Q* // returns reported Emax for input CN(C)c1ccc(NS(=O)(=O)c2cc(-c3ccc(F)cc3)c(F)cc2F)cc1 [Compound 202]
*A* 91

*Q* Reported Emax, molecule Cc1cc2cc(NS(=O)(=O)c3ccc4oc(=O)ccc4c3)ccc2[nH]1 [Compound 234] : ____
*A* 85

*Q* Sample Cc1nc2cc(NS(=O)(=O)c3cccc(-c4ccc(F)cc4)c3)ccc2s1 [Compound 188] — what was its Emax?
*A* 81

*Q* Please report the recorded Emax for Cn1ccc2ccc(NS(=O)(=O)c3cccc(-c4ccc(F)cc4)c3)cc21 [Compound 284] .
*A* 69

---

System: PC-3 cells
Assay Details: Cell invasion assay: invasion of PC-3 cells through Matrigel
Assay type: cell-based
Condition Notes: Homo sapiens, 72 hours, dose response FIG. 2, read-out: EC50 value in invasion assay
Recorded Endpoint: pEC50
Please express pEC50 as -log10 of the molar concentration.

*Q* Any idea what its pEC50 is? The molecule is `O=S(=O)(Nc1ccc2cc[nH]c2c1)c1ccc(Cl)cc1Cl`
*A* 6.52

---

Tested Target: α2β1 integrin (Homo sapiens, UniProt P05556+P17301)
Assay Details: Cell adhesion assay
Assay type: cell-based
Condition Notes: concentration not given; read-out: Emax in cell adhesion assay
Recorded Endpoint: Emax (%)
The reply should contain only the number, in %.

*Q* Report Emax for CN(C)c1ccc(N(C)S(=O)(=O)c2ccc(Cl)cc2Cl)cc1 [Compound 223] please.
*A* 82

*Q* Bench note: what Emax did CN(C)c1ccc(NS(=O)(=O)c2cccc(-c3cccc(C#N)c3)c2)cc1 [Compound 275] show?
*A* 57

*Q* I'd like to know its Emax. The compound in question is Cc1cc(C)n(-c2ccc(NS(=O)(=O)c3cccc(-c4ccc(F)cc4)c3)cc2)n1 [Compound 298]
*A* 79

*Q* Quick one: Emax for O=S(=O)(Nc1ccc2ncsc2c1)c1cccc(Br)c1 [Compound 139] ?
*A* 75

*Q* Consider the compound shown here: CN(C)c1ccc(NS(=O)(=O)c2cc(-c3ccc(F)cc3)c(-c3ccc(F)cc3)s2)cc1 [Compound 317] What is its recorded Emax?
*A* 45

*Q* Given the compound COc1cc(OC)nc(-c2ccc(NS(=O)(=O)c3ccc4ccccc4c3)cc2)n1 [Compound 266] , what is its reported Emax?
*A* 70

*Q* Recorded Emax of O=S(=O)(Nc1ccc2ncsc2c1)c1cccc(-c2ccc(F)cc2)c1 [Compound 189] , please.
*A* 76

*Q* State the recorded Emax for this entry: Cc1cc(C)nc(N(C)c2ccc(NS(=O)(=O)c3ccc(Cl)cc3Cl)cc2)n1 [Compound 50]
*A* 60

---

Tested Target: α2β1 integrin (Homo sapiens, UniProt P05556+P17301)
Assay Details: Cell adhesion assay
Assay type: cell-based
Condition Notes: read-out: EC50 in cell adhesion assay
Recorded Endpoint: pEC50
Reminder that pEC50 is minus the log10 of a molar concentration.

*Q* # query: pEC50 of entry `O=S(=O)(Nc1ccc(-n2ccnc2)cc1)c1cccc(-c2ccc(F)cc2)c1`
*A* 4.35

*Q* Can you look up the measured pEC50 of `CN(C)c1ccc(NS(=O)(=O)c2cccc(-c3cccc(O)c3)c2)cc1` for me?
*A* 4.70

*Q* Quick one: pEC50 for `COc1cc(OC)nc(-c2ccc(NS(=O)(=O)c3ccc(Cl)cc3Cl)cc2)n1` ?
*A* 4.68

*Q* Give the measured pEC50 of `Cc1cc(F)ccc1-c1cccc(S(=O)(=O)N(C)c2ccc(N(C)C)cc2)c1` .
*A* 5.20

*Q* Quick one: pEC50 of `Cc1nc2ccc(NS(=O)(=O)c3cccc(Br)c3)cc2s1` ?
*A* 4.31

Origin of values: patent US20080255169A1
